target: T1, human melanocortin 3 receptor (human, UniProt P41968 1-323); assay: radioligand competition, [I125]-NDP-α-MSH, hMC3-R membranes
T1 construct: whole, on cells; also called hMC3-R; MC3-R
T1 sequence (P41968 whole entry): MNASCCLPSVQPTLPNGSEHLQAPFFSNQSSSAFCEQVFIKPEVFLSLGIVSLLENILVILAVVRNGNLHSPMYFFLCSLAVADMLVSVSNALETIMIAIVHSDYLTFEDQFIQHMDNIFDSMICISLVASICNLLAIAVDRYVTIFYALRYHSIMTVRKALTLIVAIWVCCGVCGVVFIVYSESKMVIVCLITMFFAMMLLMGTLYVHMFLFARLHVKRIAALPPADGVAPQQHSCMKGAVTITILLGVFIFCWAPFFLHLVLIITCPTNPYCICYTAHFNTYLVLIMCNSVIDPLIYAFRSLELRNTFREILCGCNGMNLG
pKi: −log10 of the molar value.
assay.readout: pKi

# binder, reported.measurement
records = [
    ("XDHFRXK (N-terminal acetyl; Nle at 1 (X); D-Phe at 4; Nal 1 at 6 (X); cyclo(Asp 2 to Lys 7); C-terminal ethylamide -NH-CH2-CH3, also called Compound No. 39) [Ac-Nle-cyclo(-Asp-His-D-Phe-Arg-Nal 1-Lys)-NH-CH2-CH3]", 7.55),
]
